- measurement description: qHTS Assay for inhibitors of the human cytomegalovirus (HCMV); further: on the % scale 0 is the no-effect control and ±100 the full control effect
- condition info: HFF cells, HCMV-luciferase reporter, 72 h; at 57.5 µM; hits give low values
The whole screen tested about 410,000 compounds, of which about 18,000 (4.4%) were called active. Another 7% or so got no clear call; they are omitted. The full list was thinned out, with actives kept by preference.
For each of the compounds below, state its activity change, negative = inhibition.

Looking up CCN1CCN(Cc2nc3c(c(=O)n(C)c(=O)n3C)n2CC(=O)c2ccccc2)CC1 , I see its activity change, negative = inhibition listed as -5.14% (inactive)

Looking up O=C(CCCN1C(=O)/C(=C/c2ccccc2)SC1=S)Nc1ccc(O)cc1 , I found its activity change, negative = inhibition recorded as -85.4% (active)

The recorded activity change, negative = inhibition for entry CC(=O)Nc1ccc(S(=O)(=O)N2CCC(C(=O)NC3CC3)CC2)cc1 equals 6.71% (inactive)

In plain terms, COC(=O)C1=C(C)N(C(C)c2ccccc2)C(=O)/C1=C\c1ccco1 (stereo not drawn) has a documented activity change, negative = inhibition of 29.2% (inactive)

Consider Cc1ccc(-c2noc(-c3nnn(-c4cccc(C(F)(F)F)c4)c3N)n2)cc1 . Its measured activity change, negative = inhibition is 15.9% (inactive)

response.value for CC1CCN(Cc2nc3c(c(=O)n(C)c(=O)n3C)n2CCc2ccccc2)CC1 (field: activity change, negative = inhibition) = -62.3% (active)

Documented activity change, negative = inhibition of COCCn1c(CN2CCC(Cc3ccccc3)CC2)nc2c1c(=O)n(C)c(=O)n2C : -64.7% (active)

Entry Cc1cccc(N2CCN(C(=O)c3ccc(Nc4nc5ccccc5n5nnnc45)cc3)CC2)c1C ; activity change, negative = inhibition = 9.29% (inactive)

CC(=O)c1ccc(S(=O)(=O)NCCC(=O)N2CCN(c3ccccn3)CC2)cc1 yielded activity change, negative = inhibition of 60.8% (inactive)

# activity change, negative = inhibition (compound: CS(=O)(=O)N1CCc2nc(-c3ccccc3)sc2C1 ) is 154% (inactive)

// field: activity change, negative = inhibition; key: CCN(CC)P(=O)(/C(Cl)=C\Nc1c(C)n(C)n(-c2ccccc2)c1=O)N(CC)CC ; value = 54% (inactive)

Field activity change, negative = inhibition (entry COc1cccc(C(c2nnnn2-c2ccc3c(c2)OCCO3)N2CCC3(CC2)C(=O)NCN3c2ccccc2)c1OC (stereo not drawn) ) reads -15.1% (inactive)

Entry under test: CC(=O)N1CCCc2cc(S(=O)(=O)N3CCC(C(=O)NCc4ccc(F)cc4)CC3)ccc21 . Its activity change, negative = inhibition was 7.04% (inactive)

Form field activity change, negative = inhibition, entry O=S(=O)(NCC(c1ccccc1)N1CCc2ccccc21)c1ccccc1 (stereo not drawn) : 1.26% (inactive)

The compound identified as CCCNC(=O)C1CCC(Cn2c(=O)c3sccc3n(Cc3ccccc3F)c2=O)CC1 (stereo not drawn) registered its activity change, negative = inhibition at 1.25% (inactive)

Looking up C=CCn1c(C)cc(C2=NNC(=NCC)SC2)c1C , I see its activity change, negative = inhibition listed as -99.5% (active)

Recorded result, COC(=O)C(C)N(C#N)c1nc(C)nc(C)n1 (stereo not drawn) , activity change, negative = inhibition: -110% (active)

Measured activity change, negative = inhibition of O=C(CC1C(=O)N(c2ccccc2)C(=O)N1CCc1cccs1)Nc1ccc(F)cc1 (stereo not drawn) : -11.5% (inactive)

Notebook: c1ccc(CSCCc2ccncc2)cc1 , activity change, negative = inhibition read as -24.8% (inactive)

For this compound ( CCCCOc1ccc(CSC(=N)N)cc1[N+](=O)[O-] ), measured activity change, negative = inhibition is -63.8% (active)

activity change, negative = inhibition reported for this compound C#CCOc1ccccc1/C=C1/C(=O)ON=C1C : 52.7% (inactive)

Per the records, this compound ( Cc1cc(C)cc(NC(=O)CCN2C(=O)c3ccccc3C2=O)c1 ) has activity change, negative = inhibition equal to -12.5% (inactive)

The compound listed as Cc1cc(C)n2nc(C(=O)Oc3ccc4c(c3)OCO4)nc2n1 has a reported activity change, negative = inhibition of 12.7% (inactive)

Value of measured activity change, negative = inhibition for the entry CNc1nc(SC)nc(N(C#N)CC(=O)OC)n1 : 81.6% (inactive)

Field activity change, negative = inhibition (entry CCc1cc2c(cc3c(=O)n(CC(=O)NCc4cccc(Cl)c4)nc(CC)n32)s1 ) reads 34.4% (inactive)

S=C(NCCC1=CCCCC1)Nc1ccccc1 has a reported activity change, negative = inhibition of -67% (active)

compound CC(=O)Nc1ccc(NC(=O)CC2CCCC2)cc1 , activity change, negative = inhibition observed: -33.3% (inactive)

So, O=C(CCCN1C(=O)/C(=C/c2cccs2)SC1=S)Nc1ccc(O)cc1 ? Its activity change, negative = inhibition was -92.8% (active)

# activity change, negative = inhibition (compound: C/C(=N\NC(=O)NC1CCCCC1)c1ccc(OC(F)F)cc1OC(F)F ) is -36.3% (inactive)

For reference, reported activity change, negative = inhibition for Cc1cc(C)c(NC(=O)CSc2nc3ccncc3[nH]2)c(C)c1 stands at -3.75% (inactive)

Value of measured activity change, negative = inhibition for the entry CCOC(=O)c1scc(-c2ccc(C)cc2)c1S(=O)(=O)Nc1cc(C)ccc1C : -16.6% (inactive)

Item: O=C(CCl)Nc1ccc(Sc2ccc(NC(=O)CCl)cc2)cc1 | activity change, negative = inhibition: -97.1% (active)

In plain terms, Cc1ccc(S(=O)(=O)N2CCC(C(=O)NCCC3=CCCCC3)CC2)cc1C has a documented activity change, negative = inhibition of -15.1% (inactive)

The recorded activity change, negative = inhibition for O=C(CCCN1C(=O)/C(=C/c2ccco2)SC1=S)Nc1ccccc1 is -96.7% (active)

Record CC(OC(=O)c1c(F)cccc1F)C(=O)NCCC1=CCCCC1 (stereo not drawn) . Reported activity change, negative = inhibition: 20.1% (inactive)

Consider CC1CCCN(Cc2nc3c(c(=O)n(C)c(=O)n3C)n2CC(=O)c2ccccc2)C1 (stereo not drawn) . Its measured activity change, negative = inhibition is -14.9% (inactive)

Input CC(=O)Nc1ccc(S(=O)(=O)N(C)CC(=O)NCCC2=CCCCC2)cc1 . Output activity change, negative = inhibition: -7.2% (inactive)

Recorded result, CC(=NCc1ccc2c(c1)OCO2)C1=C(O)c2ccccc2C1=O , activity change, negative = inhibition: 14.5% (inactive)

activity change, negative = inhibition in this record for Cn1c(=O)cc(OCC(=O)N2CCN(c3ccccc3)CC2)c2ccccc21 : 0.385% (inactive)

Entry under test: COc1ccc(-c2cc(NCc3ccc(F)cc3)n3cnnc3n2)cc1 . Its activity change, negative = inhibition was -27.8% (inactive)

The recorded activity change, negative = inhibition for entry CCOC(=O)c1ccc(NC(=O)c2c(NCc3cccc(OC)c3)sc3c2CCC3)cc1 equals -1.86% (inactive)

Sample O=C(Nc1ccc(Oc2ccccc2)cc1)C1CCN(S(=O)(=O)c2ccc(Cl)cc2)CC1 ; activity change, negative = inhibition observed: -10.9% (inactive)

Please fill in: activity change, negative = inhibition reported for CCCCOC(=O)CCCc1ccc([N+](=O)[O-])cc1[N+](=O)[O-] = -14.8% (inactive)
